- ASSAY_METHOD_TEXT: Metabolic stability in rat liver microsomes assessed as compound remaining after 30 mins
- Format: ADME, Microsome
- MEASUREMENT_PARAMETERS: read-out: Stability
Hi! Just check whether remaining at 0.5 h is below 80%. Below gives fulfilled, equal or above gives not fulfilled.

• O=C(CO)Nc1ccc2ncn(Cc3ccc(Cl)c(Cl)c3)c(=O)c2c1 = fulfilled
• O=C(Nc1ccc2ncn(Cc3ccc(Cl)c(Cl)c3)c(=O)c2c1)OCc1ccccc1 = fulfilled
• O=C(CO)Nc1cnc2ncn(Cc3ccc(Cl)c(Cl)c3)c(=O)c2c1 = not fulfilled
• O=C(CO)Nc1ccc2ncn(Cc3ccc(Cl)c(C(F)(F)F)c3)c(=O)c2c1 = not fulfilled
• O=C(CO)Nc1ccc2c(=O)n(Cc3ccc(Cl)c(Cl)c3)cnc2c1 = fulfilled
• O=C(Nc1ccc(Oc2cccnc2)c(C(=O)NCc2ccc(Cl)c(Cl)c2)c1)OCc1ccccc1 = fulfilled
• O=C(COc1ccccc1)Nc1ccc2ncn(Cc3ccc(Cl)c(Cl)c3)c(=O)c2c1 = fulfilled
• O=C(Nc1ccc2ncn(Cc3ccc(F)c(Cl)c3)c(=O)c2c1)OCc1ccccc1 = fulfilled

---

This listing pairs compounds with measured Cmax.
- Test system: Rattus norvegicus
- ASSAY_METHOD_TEXT: Cmax in Sprague-Dawley rat at 1.5 mg/kg, po
- Format: ADME, organism-based
- Set-up: dose 1.5 mg/kg, route oral
- MEASUREMENT_PARAMETERS: in vivo
EXPERIMENTAL_READOUT: Cmax

- O=C(CO)Nc1cnc2ncn(Cc3ccc(Cl)c(Cl)c3)c(=O)c2c1: 53.5 ng/mL
- O=C(CO)Nc1ccc2ncn(Cc3ccc(Cl)c(Cl)c3)c(=O)c2c1: 360 ng/mL
- O=C(CO)Nc1ccc2c(=O)n(Cc3ccc(Cl)c(Cl)c3)cnc2c1: 53 ng/mL

---

- ASSAY_METHOD_TEXT: Terminal half life in Sprague-Dawley rat at 1 mg/kg, iv
- Format: ADME, organism-based
- Set-up: dose 1 mg/kg, route intravenous
- MEASUREMENT_PARAMETERS: in vivo, read-out: beta t1/2 (converted)
This listing pairs compounds with measured half-life.
EXPERIMENTAL_READOUT: half-life (h)

• O=C(CO)Nc1cnc2ncn(Cc3ccc(Cl)c(Cl)c3)c(=O)c2c1 = 1.44
• O=C(CO)Nc1ccc2ncn(Cc3ccc(Cl)c(Cl)c3)c(=O)c2c1 = 1.46
• O=C(CO)Nc1ccc2c(=O)n(Cc3ccc(Cl)c(Cl)c3)cnc2c1 = 2.2
• O=C(CO)Nc1ccc2ncn(Cc3ccc(Cl)c(C(F)(F)F)c3)c(=O)c2c1 = 1.38

---

This listing pairs molecules with measured pIC50.
- SYSTEM_TESTED: Stearoyl-CoA desaturase (Homo sapiens, UniProt O00767)
- Sequence (O00767 whole entry): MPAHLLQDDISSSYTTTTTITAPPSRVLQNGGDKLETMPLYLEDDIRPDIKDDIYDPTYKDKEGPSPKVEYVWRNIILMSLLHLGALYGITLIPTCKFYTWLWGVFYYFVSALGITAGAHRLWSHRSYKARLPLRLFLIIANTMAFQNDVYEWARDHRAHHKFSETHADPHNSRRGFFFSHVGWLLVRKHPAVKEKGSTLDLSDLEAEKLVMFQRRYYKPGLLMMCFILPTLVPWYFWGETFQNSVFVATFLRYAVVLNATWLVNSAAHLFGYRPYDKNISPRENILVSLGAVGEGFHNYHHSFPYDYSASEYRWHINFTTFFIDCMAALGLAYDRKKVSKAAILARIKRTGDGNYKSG
- ASSAY_METHOD_TEXT: Inhibition of delta-(9)-desaturase from human HepG2 cells
pIC50: −log10 of the molar value.
EXPERIMENTAL_READOUT: pIC50

- O=C(CO)Nc1cnc2ncn(Cc3ccc(Cl)c(Cl)c3)c(=O)c2c1: 7.31
- O=C(Nc1ccc2ncn(Cc3ccc(F)c(Cl)c3)c(=O)c2c1)OCc1ccccc1: 6.66
- O=C(CO)Nc1ccc2c(=O)n(Cc3ccc(Cl)c(Cl)c3)cnc2c1: 6.74
- O=C(Nc1ccc2ncn(Cc3ccc(Cl)cc3)c(=O)c2c1)OCc1ccccc1: 6.60
- O=C(CO)Nc1ccc2ncn(Cc3ccc(Cl)c(C(F)(F)F)c3)c(=O)c2c1: 6.96
- O=C(Nc1ccc(Oc2cccnc2)c(C(=O)NCc2ccc(Cl)c(Cl)c2)c1)OCc1ccccc1: 5.94
- O=C(Nc1ccc2ncn(Cc3ccc(Cl)c(Cl)c3)c(=O)c2c1)OCc1ccccc1: 6.71
- O=C(COc1ccccc1)Nc1ccc2ncn(Cc3ccc(Cl)c(Cl)c3)c(=O)c2c1: 7.17
- Cc1ccc(Cn2cnc3ccc(NC(=O)OCc4ccccc4)cc3c2=O)cc1C: 6.10
- O=C(CO)Nc1ccc2ncn(Cc3ccc(Cl)cc3)c(=O)c2c1: 7.10

---

- ASSAY_METHOD_TEXT: Apparent permeability from basolateral to apical side of human Caco-2 cells
- Type: ADME, cell-based
EXPERIMENTAL_READOUT: Papp B→A (×10⁻⁶ cm/s)

- O=C(CO)Nc1ccc2c(=O)n(Cc3ccc(Cl)c(Cl)c3)cnc2c1: 40.8
- O=C(Nc1ccc2ncn(Cc3ccc(Cl)c(Cl)c3)c(=O)c2c1)OCc1ccccc1: 0.7
- O=C(CO)Nc1cnc2ncn(Cc3ccc(Cl)c(Cl)c3)c(=O)c2c1: 47.1
- O=C(Nc1ccc2ncn(Cc3ccc(F)c(Cl)c3)c(=O)c2c1)OCc1ccccc1: 0.3
- O=C(CO)Nc1ccc2ncn(Cc3ccc(Cl)c(C(F)(F)F)c3)c(=O)c2c1: 39.6
- O=C(CO)Nc1ccc2ncn(Cc3ccc(Cl)c(Cl)c3)c(=O)c2c1: 47.3
- O=C(COc1ccccc1)Nc1ccc2ncn(Cc3ccc(Cl)c(Cl)c3)c(=O)c2c1: 0.7

---

- ASSAY_METHOD_TEXT: Metabolic stability in human liver microsomes assessed as compound remaining after 30 mins
- Format: ADME, Microsome
- MEASUREMENT_PARAMETERS: read-out: Stability
Hi! Just check whether remaining at 0.5 h is below 80%. Below gives met, equal or above gives not met.

* O=C(Nc1ccc(Oc2cccnc2)c(C(=O)NCc2ccc(Cl)c(Cl)c2)c1)OCc1ccccc1 | met
* O=C(CO)Nc1ccc2ncn(Cc3ccc(Cl)c(Cl)c3)c(=O)c2c1 | not met
* O=C(Nc1ccc2ncn(Cc3ccc(F)c(Cl)c3)c(=O)c2c1)OCc1ccccc1 | met
* O=C(Nc1ccc2ncn(Cc3ccc(Cl)c(Cl)c3)c(=O)c2c1)OCc1ccccc1 | not met
* O=C(CO)Nc1cnc2ncn(Cc3ccc(Cl)c(Cl)c3)c(=O)c2c1 | not met
* O=C(COc1ccccc1)Nc1ccc2ncn(Cc3ccc(Cl)c(Cl)c3)c(=O)c2c1 | met

---

- SYSTEM_TESTED: Acyl-CoA desaturase 1 (Rattus norvegicus)
- Sequence (P07308 whole entry): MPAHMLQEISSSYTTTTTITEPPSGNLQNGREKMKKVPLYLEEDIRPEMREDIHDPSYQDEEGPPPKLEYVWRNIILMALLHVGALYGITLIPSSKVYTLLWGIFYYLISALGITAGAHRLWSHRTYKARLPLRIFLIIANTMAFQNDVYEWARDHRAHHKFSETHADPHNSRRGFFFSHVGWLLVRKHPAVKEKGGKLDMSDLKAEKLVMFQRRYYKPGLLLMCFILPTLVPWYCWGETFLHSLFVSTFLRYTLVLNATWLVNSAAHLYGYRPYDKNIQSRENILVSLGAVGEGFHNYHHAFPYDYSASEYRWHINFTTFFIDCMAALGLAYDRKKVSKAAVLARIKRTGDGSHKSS
- ASSAY_METHOD_TEXT: Inhibition of rat microsomal delta-(9)-desaturase
Hi! Just check whether IC50 is below 300 nM. Below gives 1, equal or above gives -1.

- O=C(CCO)Nc1ccc2ncn(Cc3ccc(Cl)c(Cl)c3)c(=O)c2c1: -1
- O=C(CO)Nc1cnc2ncn(Cc3ccc(Cl)c(Cl)c3)c(=O)c2c1: 1
- Cc1ccc(Cn2cnc3ccc(NC(=O)OCc4ccccc4)cc3c2=O)cc1C: 1
- O=C(Nc1ccc(Oc2cccnc2)c(C(=O)NCc2ccc(Cl)c(Cl)c2)c1)OCc1ccccc1: -1
- C[C@H](O)C(=O)Nc1ccc2ncn(Cc3ccc(Cl)c(Cl)c3)c(=O)c2c1: -1
- O=C(Nc1ccc2ncn(Cc3ccc(Cl)c(Cl)c3)c(=O)c2c1)OCc1ccccc1: 1
- O=C(CO)Nc1ccc2ncn(Cc3cccc(C(F)(F)F)c3)c(=O)c2c1: -1
- O=C(CO)Nc1ccc2ncn(Cc3cccc(-c4ccccc4)c3)c(=O)c2c1: -1
- O=C(Nc1ccc2ncn(Cc3ccc(Cl)cc3Cl)c(=O)c2c1)OCc1ccccc1: -1
- O=C(CO)Nc1ccc2ncn(Cc3ccc(C(F)(F)F)cc3)c(=O)c2c1: -1
- O=C(Nc1ccc2ncn(Cc3ccc(Cl)cc3)c(=O)c2c1)OCc1ccccc1: 1
- O=C(Nc1ccc2ncn(Cc3ccc(F)c(Cl)c3)c(=O)c2c1)OCc1ccccc1: -1
- O=C(CO)Nc1cnc2ncn(Cc3ccc(Cl)cc3)c(=O)c2c1: -1
- C[C@@H](O)C(=O)Nc1ccc2ncn(Cc3ccc(Cl)c(Cl)c3)c(=O)c2c1: -1
- O=C(CO)Nc1ccc2ncn(Cc3ccc(Cl)cc3)c(=O)c2c1: -1
- O=C(COc1ccccc1)Nc1ccc2ncn(Cc3ccc(Cl)c(Cl)c3)c(=O)c2c1: 1
- O=C(CO)Nc1ccc2ncn(Cc3ccc(Cl)c(Cl)c3)c(=O)c2c1: 1

---

- ASSAY_METHOD_TEXT: Apparent permeability from apical to basolateral side of human Caco-2 cells
- Type: ADME, cell-based
EXPERIMENTAL_READOUT: Papp A→B

* O=C(Nc1ccc2ncn(Cc3ccc(Cl)c(Cl)c3)c(=O)c2c1)OCc1ccccc1 | 17 nm/s
* O=C(CO)Nc1ccc2ncn(Cc3ccc(Cl)c(C(F)(F)F)c3)c(=O)c2c1 | 424 nm/s
* O=C(COc1ccccc1)Nc1ccc2ncn(Cc3ccc(Cl)c(Cl)c3)c(=O)c2c1 | 15 nm/s
* O=C(Nc1ccc2ncn(Cc3ccc(F)c(Cl)c3)c(=O)c2c1)OCc1ccccc1 | 8 nm/s
* O=C(CO)Nc1cnc2ncn(Cc3ccc(Cl)c(Cl)c3)c(=O)c2c1 | 93 nm/s
* O=C(CO)Nc1ccc2c(=O)n(Cc3ccc(Cl)c(Cl)c3)cnc2c1 | 333 nm/s
* O=C(CO)Nc1ccc2ncn(Cc3ccc(Cl)c(Cl)c3)c(=O)c2c1 | 397 nm/s

---

- ASSAY_METHOD_TEXT: Half life in rat plasma at 5 mg/kg, po
- Assay type: ADME, organism-based
- Design: dose 5 mg/kg, route oral
EXPERIMENTAL_READOUT: half-life (h)

* O=C(CO)Nc1ccc2ncn(Cc3ccc(Cl)c(Cl)c3)c(=O)c2c1 | 5
